Data credit: patent US11771738B2

- System: third stage larvae of Haemonchus contortus
- PROCEDURE_SUMMARY: Haemonchus contortus, Larvae Stage 3 (HcL3) In Vitro Assay
- Type: cell-based
- TEST_CONDITIONS: Haemonchus contortus, 96 h, read-out: HcL3 MED, Minimum Effective Dose, H. contortus third stage larvae, approximately 96 hours
Documented minimal effective concentration across a set of molecules
Answer in µM, number only, no unit symbol.

// below: answered molecules
[
  {
    "MOLECULE": "CCOC(c1ccc(C[C@H]2OC(=O)[C@H](CC(C)C)N(C)C(=O)[C@@H](C)OC(=O)[C@H](CC(C)C)N(C)C(=O)[C@@H](Cc3ccccc3)OC(=O)[C@H](CC(C)C)N(C)C(=O)[C@@H](C)OC(=O)[C@H](CC(C)C)N(C)C2=O)cc1)c1ccc(F)c(F)c1 (stereo partly shown) [Example 2-38]",
    "TARGET_OR_TEST_SYSTEM": "third stage larvae of Haemonchus contortus",
    "minimal effective concentration [µM]": 0.5
  },
  {
    "MOLECULE": "CSc1ncccc1Cc1ccc(C[C@H]2OC(=O)[C@H](CC(C)C)N(C)C(=O)[C@@H](C)OC(=O)[C@H](CC(C)C)N(C)C(=O)[C@@H](Cc3ccc(Cc4cccnc4SC)cc3)OC(=O)[C@H](CC(C)C)N(C)C(=O)[C@@H](C)OC(=O)[C@H](CC(C)C)N(C)C2=O)cc1 [Example 3-308]",
    "TARGET_OR_TEST_SYSTEM": "third stage larvae of Haemonchus contortus",
    "minimal effective concentration [µM]": 3.3
  },
  {
    "MOLECULE": "CC(C)C[C@H]1C(=O)O[C@H](Cc2ccc(Cc3ccnc(N4CCOCC4)c3)cc2)C(=O)N(C)[C@@H](CC(C)C)C(=O)O[C@H](C)C(=O)N(C)[C@@H](CC(C)C)C(=O)O[C@H](Cc2ccc(Cc3ccnc(N4CCOCC4)c3)cc2)C(=O)N(C)[C@@H](CC(C)C)C(=O)O[C@H](C)C(=O)N1C [Example 3-292]",
    "TARGET_OR_TEST_SYSTEM": "third stage larvae of Haemonchus contortus",
    "minimal effective concentration [µM]": 1.8
  },
  {
    "MOLECULE": "CC(C)C[C@H]1C(=O)O[C@H](Cc2ccc(Cc3scnc3Cl)cc2)C(=O)N(C)[C@@H](CC(C)C)C(=O)O[C@H](C)C(=O)N(C)[C@@H](CC(C)C)C(=O)O[C@H](Cc2ccc(Cc3scnc3Cl)cc2)C(=O)N(C)[C@@H](CC(C)C)C(=O)O[C@H](C)C(=O)N1C [Example 3-112]",
    "TARGET_OR_TEST_SYSTEM": "third stage larvae of Haemonchus contortus",
    "minimal effective concentration [µM]": 1
  },
  {
    "MOLECULE": "Cc1ncsc1Cc1ccc(C[C@H]2OC(=O)[C@H](CC(C)C)N(C)C(=O)[C@@H](C)OC(=O)[C@H](CC(C)C)N(C)C(=O)[C@@H](Cc3ccc(Cc4scnc4C)cc3)OC(=O)[C@H](CC(C)C)N(C)C(=O)[C@@H](C)OC(=O)[C@H](CC(C)C)N(C)C2=O)cc1 [Example 3-155]",
    "TARGET_OR_TEST_SYSTEM": "third stage larvae of Haemonchus contortus",
    "minimal effective concentration [µM]": 0.5
  }
]

Here is the next item to consider.
Return reported minimal effective concentration for target or system third stage larvae of Haemonchus contortus, item Cc1ncccc1Cc1ccc(C[C@@H]2OC(=O)[C@H](CC(C)C)N(C)C(=O)[C@@H](C)OC(=O)[C@@H](CC(C)C)N(C)C(=O)[C@@H](Cc3ccc(Cc4cccnc4C)cc3)OC(=O)[C@@H](CC(C)C)N(C)C(=O)[C@@H](C)OC(=O)[C@H](CC(C)C)N(C)C2=O)cc1 [Example 3-273] .
1
